- assayed_system: CDK4-CYCLIND1 (Homo sapiens)
- protocol_description: CDK inhibition assay (microfluidic LabChip, IC50 format)
- run_conditions: CDK4 IC50, Table 4b, upper part
Parameter IC50: see the listing below.

{"compound": "CN1C(=O)CC2(Cc3cnc(Nc4ccc(N5CCNCC5)cc4)nc3N(C3CCCC3)C2=O)C1=O (stereo not shown)", "value_units": "nM", "IC50": 50.7}
{"compound": "COc1cc(Nc2ncc3c(n2)N(C2CCCC2)C(=O)C2(CCNC2=O)C3)ccc1N1CCN(C(C)C)CC1 (stereo not shown)", "value_units": "nM", "IC50": 3.18}
{"compound": "CC(C)N1CCN(c2ccc(Nc3ncc4c(n3)N(C3CCCC3)C(=O)C3(CCNC3=O)C4)cn2)CC1 (stereo not shown)", "value_units": "nM", "IC50": 1.88}
{"compound": "CC(C)N1CCN(c2ccc(Nc3ncc4c(n3)N(C3CCCC3)C(=O)C3(CCNC3=O)C4)cc2)CC1 (stereo not shown)", "value_units": "nM", "IC50": 2.64}
{"compound": "O=C1NCCC12Cc1cnc(Nc3ccc(OCCN4CCCCC4)cn3)nc1N(C1CCCC1)C2=O (stereo not shown)", "value_units": "nM", "IC50": 44.6}
{"compound": "Cc1cc(Nc2ncc3c(n2)N(C2CCCC2)C(=O)C2(CCNC2=O)C3)ccc1N1CCN(C(C)C)CC1 (stereo not shown)", "value_units": "nM", "IC50": 1.96}
{"compound": "O=C1NCCC12Cc1cnc(Nc3ccc(N4CCNCC4)cc3)nc1N(C1CCCC1)C2=O (stereo not shown)", "value_units": "nM", "IC50": 2.81}

----------
Overview of reported pIC50 across a group of compounds:
- assayed_system: CDK6-CYCLIND3 (Homo sapiens, UniProt Q00534)
- Construct: purchased Carna
- Sequence (Q00534 whole entry): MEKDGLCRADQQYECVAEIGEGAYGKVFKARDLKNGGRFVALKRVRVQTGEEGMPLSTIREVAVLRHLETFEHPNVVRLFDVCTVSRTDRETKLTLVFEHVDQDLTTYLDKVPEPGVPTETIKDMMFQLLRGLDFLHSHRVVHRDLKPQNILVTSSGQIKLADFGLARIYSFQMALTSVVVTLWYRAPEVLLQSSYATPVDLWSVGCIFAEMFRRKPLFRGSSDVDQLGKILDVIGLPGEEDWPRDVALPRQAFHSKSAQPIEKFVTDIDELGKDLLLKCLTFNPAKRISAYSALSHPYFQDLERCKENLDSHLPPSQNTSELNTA
- Sequence (P30281 whole entry partner): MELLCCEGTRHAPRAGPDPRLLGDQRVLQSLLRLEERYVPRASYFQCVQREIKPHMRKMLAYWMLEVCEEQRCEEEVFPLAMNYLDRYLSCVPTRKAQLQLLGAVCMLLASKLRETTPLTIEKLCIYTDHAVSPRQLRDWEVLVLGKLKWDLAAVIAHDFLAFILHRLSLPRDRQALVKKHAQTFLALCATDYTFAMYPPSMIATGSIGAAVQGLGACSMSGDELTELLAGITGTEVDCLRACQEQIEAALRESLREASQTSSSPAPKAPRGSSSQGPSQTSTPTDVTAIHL
- protocol_description: CDK inhibition assay (microfluidic LabChip, IC50 format)
- Assay type: biochemical
- run_conditions: Table 4a; read-out: CDK6 CyclinD3 IC50
pIC50: −log10 of the molar value.

{"chemical_smiles": "COc1cc(N2CCN(C(C)C)CC2)ccc1Nc1ncc2c(n1)N(C1CCCC1)C(=O)[C@]1(CCNC1=O)C2", "pIC50": 6.95}
{"chemical_smiles": "CC(C)N1CCN(c2ccc(Nc3ncc4c(n3)N(C3CCCC3)C(=O)[C@]3(CCNC3=O)C4)nc2)CC1", "pIC50": 8.63}
{"chemical_smiles": "CC(C)N1CC2(CN(c3ccc(Nc4ncc5c(n4)N(C4CCCC4)C(=O)[C@]4(CCNC4=O)C5)nc3)C2)C1", "pIC50": 8.42}
{"chemical_smiles": "Cc1cc(Nc2ncc3c(n2)N(C2CCCC2)C(=O)[C@]2(CCNC2=O)C3)ccc1N1CCN(C(C)C)CC1", "pIC50": 8.66}
{"chemical_smiles": "O=C1NCC[C@@]12Cc1cnc(Nc3ccc(N4CC5(CNC5)C4)cc3)nc1N(C1CCCC1)C2=O", "pIC50": 8.18}
{"chemical_smiles": "Cn1cc(-c2ccc(Nc3ncc4c(n3)N(C3CCCC3)C(=O)[C@]3(CCNC3=O)C4)cc2)cn1", "pIC50": 8.03}
{"chemical_smiles": "O=C1NCC[C@@]12Cc1cnc(Nc3ccc(N4CCNCC4)cc3F)nc1N(C1CCCC1)C2=O", "pIC50": 8.09}

----------
- assayed_system: CDK6-CYCLIND3 (Homo sapiens, UniProt Q00534)
- Construct: purchased Carna
- protocol_description: CDK inhibition assay (microfluidic LabChip, IC50 format)
- Format: biochemical
- run_conditions: Table 3; purified enantiomers; read-out: CDK6 (E1/E2)

{"chemical_smiles": "CN1CCN(c2ccc(Nc3ncc4c(n3)N(C3CCCC3)C(=O)[C@]3(CCNC3=O)C4)cc2F)CC1", "assayed_system": "CDK6-CYCLIND3 (Homo sapiens, UniProt Q00534)", "IC50 (nM)": 1.94}
{"chemical_smiles": "O=C1NCC[C@]12Cc1cnc(Nc3ccc(N4CCNCC4)cc3)nc1N(C1CCCC1)C2=O", "assayed_system": "CDK6-CYCLIND3 (Homo sapiens, UniProt Q00534)", "IC50 (nM)": 519}
{"chemical_smiles": "CC(C)N1CCN(c2ccc(Nc3ncc4c(n3)N(C3CCCC3)C(=O)[C@@]3(CCNC3=O)C4)cc2F)CC1", "assayed_system": "CDK6-CYCLIND3 (Homo sapiens, UniProt Q00534)", "IC50 (nM)": 384}

----------
- assayed_system: CDK4-CYCLIND1 (Homo sapiens, UniProt P11802)
- Sequence (P11802 whole entry): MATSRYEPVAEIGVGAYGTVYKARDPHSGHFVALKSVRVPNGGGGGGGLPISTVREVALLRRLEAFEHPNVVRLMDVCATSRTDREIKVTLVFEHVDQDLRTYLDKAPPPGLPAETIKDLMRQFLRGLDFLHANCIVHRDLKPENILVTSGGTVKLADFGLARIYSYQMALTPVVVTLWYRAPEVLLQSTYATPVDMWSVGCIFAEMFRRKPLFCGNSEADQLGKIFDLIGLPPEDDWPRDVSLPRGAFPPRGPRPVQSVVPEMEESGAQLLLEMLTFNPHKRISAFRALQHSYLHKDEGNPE
- Sequence (P24385 whole entry partner): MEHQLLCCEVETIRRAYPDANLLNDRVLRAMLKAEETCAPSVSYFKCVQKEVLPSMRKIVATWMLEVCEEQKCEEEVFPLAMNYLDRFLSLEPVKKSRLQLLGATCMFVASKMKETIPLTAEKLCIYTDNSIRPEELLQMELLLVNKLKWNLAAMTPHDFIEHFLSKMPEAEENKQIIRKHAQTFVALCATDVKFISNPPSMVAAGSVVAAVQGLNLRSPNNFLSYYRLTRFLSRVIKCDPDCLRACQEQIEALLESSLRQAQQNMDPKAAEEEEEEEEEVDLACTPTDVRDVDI
- protocol_description: CDK inhibition assay (microfluidic LabChip, IC50 format)
- run_conditions: CDK4 IC50, Table 4b, upper part
attribute_measured: log10 IC50 (log10 of the value in nM)

{"compound": "CN(C)[C@H]1CCN(C(=O)c2ccc(Nc3ncc4c(n3)N(C3CCCC3)C(=O)C3(CCNC3=O)C4)cc2)C1 (some centres unmarked) [Example D46]", "attribute_measured": "log10 IC50", "numeric_result": 0.51}
{"compound": "O=C1NCCC12Cc1cnc(Nc3ccc(N4CCC(N5CCOCC5)CC4)c(F)c3)nc1N(C1CCCC1)C2=O (centres unmarked) [Example D38]", "attribute_measured": "log10 IC50", "numeric_result": 0.59}
{"compound": "CN1CCN(c2ccc(Nc3ncc4c(n3)N(C3CCCC3)C(=O)C3(CCNC3=O)C4)nc2)CC1 (centres unmarked) [Example D8]", "attribute_measured": "log10 IC50", "numeric_result": 0.31}
{"compound": "CN(C)[C@H]1CCN(c2ccc(Nc3ncc4c(n3)N(C3CCCC3)C(=O)C3(CCNC3=O)C4)cc2F)C1 (some centres unmarked) [Example D45]", "attribute_measured": "log10 IC50", "numeric_result": 0.43}
{"compound": "CN(C)[C@H]1CCN(C(=O)c2ccc(Nc3ncc4c(n3)N(C3CCCC3)C(=O)C3(CCNC3=O)C4)cn2)C1 (some centres unmarked) [Example D47]", "attribute_measured": "log10 IC50", "numeric_result": 0.53}
{"compound": "CC(C)N1CCN(c2ccc(Nc3ncc4c(n3)N(C3CCCC3)C(=O)C3(CCN(C)C3=O)C4)cc2)CC1 (centres unmarked) [Example D2]", "attribute_measured": "log10 IC50", "numeric_result": 1.92}
{"compound": "CN1CCC2(Cc3cnc(Nc4ccc(N5CCNCC5)cc4)nc3N(C3CCCC3)C2=O)C1=O (centres unmarked) [Example D1]", "attribute_measured": "log10 IC50", "numeric_result": 1.43}
{"compound": "CN1CCN(c2ccc(Nc3ncc4c(n3)N(C3CCCC3)C(=O)C3(CC(=O)N(C)C3=O)C4)cn2)CC1 (centres unmarked) [Example D25]", "attribute_measured": "log10 IC50", "numeric_result": 2.13}
{"compound": "CC(C)N1CCN(c2ccc(Nc3ncc4c(n3)N(C3CCCC3)C(=O)C3(CCN(C)C3=O)C4)cn2)CC1 (centres unmarked) [Example D18]", "attribute_measured": "log10 IC50", "numeric_result": 1.72}
{"compound": "CN1C(=O)CC2(Cc3cnc(Nc4ccc(OCCN5CCCC5)c(F)c4)nc3N(C3CCCC3)C2=O)C1=O (centres unmarked) [Example D30]", "attribute_measured": "log10 IC50", "numeric_result": 2.67}
{"compound": "CN1C(=O)CC2(Cc3cnc(Nc4ccc(N5CCNCC5)c(F)c4)nc3N(C3CCCC3)C2=O)C1=O (centres unmarked) [Example D27]", "attribute_measured": "log10 IC50", "numeric_result": 1.54}
{"compound": "CN1CCN(c2ccc(Nc3ncc4c(n3)N(C3CCCC3)C(=O)C3(CCNC3=O)C4)cc2F)CC1 (centres unmarked) [Example D12]", "attribute_measured": "log10 IC50", "numeric_result": 0.26}
{"compound": "CC(C)N1CCN(c2ccc(Nc3ncc4c(n3)N(C3CCCC3)C(=O)C3(CC(=O)N(C)C3=O)C4)cn2)CC1 (centres unmarked) [Example D26]", "attribute_measured": "log10 IC50", "numeric_result": 2.02}
{"compound": "CC(C)N1CCN(c2ccc(Nc3ncc4c(n3)N(C3CCCC3)C(=O)C3(CC(=O)N(C)C3=O)C4)cc2)CC1 (centres unmarked) [Example D22]", "attribute_measured": "log10 IC50", "numeric_result": 1.46}

----------
- assayed_system: CDK7 CyclinH (Homo sapiens)
- Sequence (P50613 whole entry): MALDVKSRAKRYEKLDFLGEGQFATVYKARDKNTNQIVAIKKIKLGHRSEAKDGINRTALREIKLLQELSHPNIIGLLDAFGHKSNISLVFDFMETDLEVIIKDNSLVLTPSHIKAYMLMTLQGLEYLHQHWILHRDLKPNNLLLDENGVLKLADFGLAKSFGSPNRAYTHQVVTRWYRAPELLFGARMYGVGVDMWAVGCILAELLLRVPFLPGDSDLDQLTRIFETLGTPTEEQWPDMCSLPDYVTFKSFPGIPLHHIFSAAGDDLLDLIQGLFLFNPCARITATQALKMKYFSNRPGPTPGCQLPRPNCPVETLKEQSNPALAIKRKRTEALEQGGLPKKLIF
- Sequence (P51946 whole entry partner): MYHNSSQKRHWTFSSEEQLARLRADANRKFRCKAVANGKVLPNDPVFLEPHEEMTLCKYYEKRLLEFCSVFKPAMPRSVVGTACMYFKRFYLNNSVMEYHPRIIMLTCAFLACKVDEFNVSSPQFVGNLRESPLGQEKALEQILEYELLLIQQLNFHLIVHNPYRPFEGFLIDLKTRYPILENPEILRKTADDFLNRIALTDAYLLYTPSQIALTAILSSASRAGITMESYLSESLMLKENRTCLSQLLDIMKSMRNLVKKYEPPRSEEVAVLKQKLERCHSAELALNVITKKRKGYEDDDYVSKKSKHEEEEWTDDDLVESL
- Sequence (P51948 whole entry partner): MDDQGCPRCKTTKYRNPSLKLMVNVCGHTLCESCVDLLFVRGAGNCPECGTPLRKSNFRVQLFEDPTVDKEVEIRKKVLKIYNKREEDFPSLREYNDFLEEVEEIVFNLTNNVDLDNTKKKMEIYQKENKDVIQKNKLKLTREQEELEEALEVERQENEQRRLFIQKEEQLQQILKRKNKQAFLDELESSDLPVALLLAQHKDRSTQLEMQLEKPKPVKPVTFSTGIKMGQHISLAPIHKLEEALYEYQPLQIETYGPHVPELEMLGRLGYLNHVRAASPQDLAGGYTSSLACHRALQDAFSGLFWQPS
- protocol_description: CDK inhibition assay (microfluidic LabChip, IC50 format)
- Format: biochemical
- run_conditions: Table 4b, lower part

{"molecule": "CC(C)N1CCN(c2ccc(Nc3ncc4c(n3)N(C35CC(C3)C5)C(=O)[C@]3(CCNC3=O)C4)cc2)CC1 [Example D187]", "sign": "=", "IC50, nM": 1680}
{"molecule": "O=C1NCC[C@@]12Cc1cnc(Nc3ccc(N4CCNCC4)c(F)c3)nc1N(C13CC(C1)C3)C2=O [Example D184]", "sign": "=", "IC50, nM": 1690}
{"molecule": "CN1CCC(c2ccc(Nc3ncc4c(n3)N(C3CCCC3)C(=O)[C@]3(CCNC3=O)C4)cc2)CC1 [Example D135]", "sign": "=", "IC50, nM": 222}
{"molecule": "CCN1CCN(Cc2ccc(Nc3ncc4c(n3)N(C35CC(C3)C5)C(=O)[C@]3(CCNC3=O)C4)nc2)CC1 [Example D190]", "sign": ">", "IC50, nM": 100000}

Values were extracted from patent US20230048132A1.
